System: methicillin-resistant S. aureus (MRSA, USA300 JE2)
Experiment: MIC / growth inhibition assay (end-point OD600), single agent
Format: cell-based, Staphylococcus aureus
Conditions: read-out: EC50 S. aureus (USA300 JE2) Compound only; single agent, end-point OD600 after 18 h
reported-property: pEC50
The meaning of pEC50 here: minus log10 of the concentration in molar units.

*Q* What measured pEC50 goes with "CCn1cc(C(=O)O)c(=O)c2cnc(N3CCN(C(=S)Nc4cccc(Cl)c4)CC3)nc21" ?
*A* 5.16

---

System: JE2
Assay: Synergy experiments with CFX (growth rate method, Chou-Talalay, CompuSyn)
Assay type: cell-based, Staphylococcus aureus
Details: Staphylococcus aureus; JE2, rate of exponential growth phase over 17 h at 37 °C
Experimental: A more precise method to determine EC50 values for individual compounds and combinations was used to increase accuracy for CI calculations. […] Synergy experiments were performed as described for MIC assays. Two-fold serial dilutions […] carried out at 37 °C, with shaking at 220 r.p.m. OD600 was recorded every 30 min over a 17 h period. Measurements were background corrected against the no-inocula control before a growth curve of OD600 against time was constructed. […]
Answer each item with its documented EC50.
// units = µM; emit number, no label

*Q* Form field - read-out: EC50; system: JE2; submitted item: CCn1cc(C(=O)O)c(=O)c2cnc(N3CCN(C(=S)Nc4cccc(C(F)(F)F)c4)CC3)nc21 [Compound 1, reference compound]
*A* 5.9

*Q* Form field - read-out: EC50; system: JE2; submitted item: "CCn1cc(C(=O)O)c(=O)c2cnc(N3CCN(C(=S)Nc4cccc(Cl)c4)CC3)nc21"
*A* 6.2

*Q* Form field - read-out: EC50; system: JE2; submitted item: "O=C(O)c1cn(C2CC2)c2cc(N3CCN(C(=S)Nc4ccc(C(F)(F)F)cc4)CC3)c(F)cc2c1=O"
*A* 2.8

---

Test system: E. coli K-12 BW25113
Assay: MIC / growth inhibition assay (end-point OD600), single agent
Assay type: cell-based, Escherichia coli
Conditions: Escherichia coli, BW25113, end-point OD600 after 18 h, read-out: EC50 E. coli (K12 BW25113) Compound only
reported-property: EC50 (nM)
// units = nM; emit number, no label

*Q* What measured EC50 goes with "O=C(O)c1cn(C2CC2)c2cc(N3CCN(C(=S)Nc4cc(C(F)(F)F)cc(C(F)(F)F)c4)CC3)c(F)cc2c1=O" ?
*A* 390

*Q* What measured EC50 goes with CC1CN(c2cc3c(cc2F)c(=O)c(C(=O)O)cn3C2CC2)CCN1C(=S)Nc1ccc(C(F)(F)F)cc1 (centres unmarked) ?
*A* 300

*Q* What measured EC50 goes with "O=C(O)c1cn(C2CC2)c2cc(N3CCN(C(=S)Nc4cccc(F)c4)CC3)c(F)cc2c1=O" ?
*A* 240

*Q* What measured EC50 goes with "O=C(O)c1cn(C2CC2)c2cc(N3CCN(C(=S)Nc4cccc([N+](=O)[O-])c4)CC3)c(F)cc2c1=O" ?
*A* 270

---

Tested on: MRSA (USA300 JE2)
Experiment: Growth inhibition in the presence of H2O2
Type: cell-based, Staphylococcus aureus
Conditions: read-out: EC50 Compound + H2O2 (200 µM); MRSA USA300 JE2, H2O2 200 µM
Protocol: The analogue panel was further tested for potentiation of alternative DNA-damaging agents Mitomycin-C (MMC) and hydrogen peroxide (Table S2), which function via alkylation and oxidization DNA bases, respectively. 2.1. Biological and biochemical methods […] as the lowest concentration with no visible bacterial growth, and the optical density at 600 nm (OD600) was recorded. […] The EC50 value mean and SEM were calculated from individual EC50 values from three biological replicates. […]
Friendly reminder: EC50 below 5 µM is label 1, at or above is label 0.

*Q* Given the entry "CCn1cc(C(=O)O)c(=O)c2cnc(N3CCN(C(=S)Nc4cc(Cl)cc(Cl)c4)CC3)nc21" , would its reported EC50 be below 5 µM?
*A* label 1

*Q* Given the entry "O=C(O)c1cn(C2CC2)c2cc(N3CCN(C(=S)Nc4ccc(C(F)(F)F)cc4)CC3)c(F)cc2c1=O" , would its reported EC50 be below 5 µM?
*A* label 1

*Q* Given the entry "CCn1cc(C(=O)O)c(=O)c2cnc(N3CCN(C(=S)Nc4cc(C(F)(F)F)cc(C(F)(F)F)c4)CC3)nc21" , would its reported EC50 be below 5 µM?
*A* label 1

*Q* Given the entry "CCn1cc(C(=O)O)c(=O)c2cnc(N3CCN(C(=S)Nc4cccc(F)c4)CC3)nc21" , would its reported EC50 be below 5 µM?
*A* label 0

*Q* Given the entry "CCn1cc(C(=O)O)c(=O)c2cnc(N3CCN(C(=S)Nc4ccc(C(F)(F)F)cc4)CC3)nc21" , would its reported EC50 be below 5 µM?
*A* label 1

*Q* Given the entry "O=C(O)c1cn(C2CC2)c2cc(N3CCN(C(=S)Nc4cc(Cl)cc(Cl)c4)CC3)c(F)cc2c1=O" , would its reported EC50 be below 5 µM?
*A* label 1

*Q* Given the entry "O=C(O)c1cn(C2CC2)c2cc(N3CCN(C(=S)Nc4cccc(Cl)c4)CC3)c(F)cc2c1=O" , would its reported EC50 be below 5 µM?
*A* label 1

*Q* Given the entry "CCn1cc(C(=O)O)c(=O)c2cnc(N3CCN(C(=S)Nc4cccc(Cl)c4)CC3)nc21" , would its reported EC50 be below 5 µM?
*A* label 0

*Q* Given the entry CCn1cc(C(=O)O)c(=O)c2cnc(N3CCN(C(=S)Nc4cccc(C(F)(F)F)c4)CC3)nc21 [Compound 1, reference compound] , would its reported EC50 be below 5 µM?
*A* label 0

*Q* Given the entry "O=C(O)c1cn(C2CC2)c2cc(N3CCN(C(=S)Nc4cccc(C(F)(F)F)c4)CC3)c(F)cc2c1=O" , would its reported EC50 be below 5 µM?
*A* label 0

*Q* Given the entry "O=C(O)c1cn(C2CC2)c2cc(N3CCN(C(=S)Nc4cccc(F)c4)CC3)c(F)cc2c1=O" , would its reported EC50 be below 5 µM?
*A* label 1

*Q* Given the entry "O=C(O)c1cn(C2CC2)c2cc(N3CCN(C(=S)Nc4cc(C(F)(F)F)cc(C(F)(F)F)c4)CC3)c(F)cc2c1=O" , would its reported EC50 be below 5 µM?
*A* label 1

---

Answer each item with its documented EC50.
Tested on: E. coli K-12 BW25113
Test: MIC / growth inhibition assay (end-point OD600), single agent
Type: cell-based, Escherichia coli
Conditions: Escherichia coli, BW25113, end-point OD600 after 18 h, read-out: EC50 E. coli (K12 BW25113) Compound only
// units = µM; emit number, no label

*Q* Form field - read-out: EC50; system: E. coli K-12 BW25113; submitted item: O=C(O)c1cn(C2CC2)c2cc(N3CCC(NC(=S)Nc4ccc(C(F)(F)F)cc4)C3)c(F)cc2c1=O (stereo not shown)
*A* 2.8

*Q* Form field - read-out: EC50; system: E. coli K-12 BW25113; submitted item: "NCCNC(=O)c1cn(C2CC2)c2cc(N3CCN(C(=S)Nc4ccc(C(F)(F)F)cc4)CC3)c(F)cc2c1=O"
*A* 47

*Q* Form field - read-out: EC50; system: E. coli K-12 BW25113; submitted item: "O=C(O)c1cn(C2CC2)c2cc(N3CCN(C(=S)Nc4cccc(Cl)c4)CC3)c(F)cc2c1=O"
*A* 0.46

---

Test system: E. coli K-12 BW25113
Test: MIC / growth inhibition assay (end-point OD600), single agent
Assay type: cell-based, Escherichia coli
Conditions: Escherichia coli, BW25113, end-point OD600 after 18 h, read-out: EC50 E. coli (K12 BW25113) Compound only
reported-property: pEC50
The meaning of pEC50 here: minus log10 of the concentration in molar units.

*Q* Form field - read-out: pEC50; system: E. coli K-12 BW25113; submitted item: "O=C(O)c1cn(C2CC2)c2cc(N3CCN(C(=S)Nc4cccc(C(F)(F)F)c4)CC3)c(F)cc2c1=O"
*A* 6.39

*Q* Form field - read-out: pEC50; system: E. coli K-12 BW25113; submitted item: "O=C(O)c1cn(C2CC2)c2cc(N3CCN(C(=S)Nc4cc(Cl)cc(Cl)c4)CC3)c(F)cc2c1=O"
*A* 6.38

*Q* Form field - read-out: pEC50; system: E. coli K-12 BW25113; submitted item: "O=C(O)c1cn(C2CC2)c2cc(N3CCN(C(=S)Nc4ccc(C(F)(F)F)cc4)CC3)c(F)cc2c1=O"
*A* 6.30

---

Tested on: E. coli K-12 BW25113
Test: MIC / growth inhibition assay (end-point OD600), single agent
Type: cell-based, Escherichia coli
Conditions: Escherichia coli, BW25113, end-point OD600 after 18 h, read-out: EC50 E. coli (K12 BW25113) Compound only
Answer each item with its documented EC50.

*Q* What measured EC50 goes with CC(C)(C)OC(=O)NCCNC(=O)c1cn(C2CC2)c2cc(N3CCN(C(=S)Nc4ccc(C(F)(F)F)cc4)CC3)c(F)cc2c1=O [Compound 19] ?
*A* > 100 µM

*Q* What measured EC50 goes with O=C(O)c1cn(C2CC2)c2cc(N3CCN(C(=S)Nc4ccc([N+](=O)[O-])cc4)CC3)c(F)cc2c1=O [Compound 14] ?
*A* 0.26 µM

*Q* What measured EC50 goes with O=C(O)c1cn(C2CC2)c2cc(NCCNC(=S)Nc3ccc(C(F)(F)F)cc3)c(F)cc2c1=O [Compound 18] ?
*A* > 100 µM

*Q* What measured EC50 goes with CCn1cc(C(=O)O)c(=O)c2cnc(N3CCN(C(=S)Nc4cccc(Cl)c4)CC3)nc21 [Compound 5] ?
*A* > 100 µM
